- System: HOP-62 NSCLC
- run-description: NCI tumour cell line growth inhibition, 48 h
observed-property: GI50

Before answering, review these 2 worked examples.
{"columns": ["compound", "study-system", "observed-property", "value-reported"],
 "data": [
  ["CCSc1nc(N)c2cnn(CC)c2n1", "HOP-62 NSCLC", "GI50", "20.1 µM"],
  ["COC(=O)c1cc(C)[nH]c2c(C)cc3nc4ccccc4c3c12", "HOP-62 NSCLC", "GI50", "12.4 µM"]
]}

Lab note: each compound below needs its GI50 filled in.
1. C1CC[N-]CC1.CC(=N\O)/C(C)=N/O.CC(=N\O)/C(C)=N/O.C[CH-]C(C)O.[Co+2]
2. C=Cc1cc(OC)c2c(c1)c(=O)oc1c2cc(OC)c2c(O)ccc(C3OC(C(C)O)C(O)C3O)c21 (stereo not given)
3. CNc1nc(-c2ccc3c(N)n[nH]c3c2)cc(N2C[C@@H](C(=O)NC3CCCCC3)CC[C@H]2C)n1

[out]
1: 21.7 µM; 2: 0.00996 µM; 3: 3.26 µM

---

- Test system: SK-MEL-5 melanoma
- run-description: NCI tumour cell line growth inhibition, 48 h
observed-property: TGI (µM)
Give bare numbers, in µM.

Sample answers from the record:
{"columns": ["compound", "TGI (µM)"],
 "data": [
  ["CC1=C(SCCC(=O)OC(C[Se]C2=C(C)C(=O)c3ccccc3C2=O)C(=O)NC(C)(C)C)C(=O)c2ccccc2C1=O (stereo unspecified)", 2.86],
  ["CC(=O)OC1=C(CC(C)(C)C)C(=O)c2ccccc2C1=O", 51.3],
  ["CN1CCN(c2nc3cc(F)ccc3n3cccc23)CC1", 38]
]}

Answer for every listed entry: what is its TGI? The entries follow.
1. O=C(/C=C/c1ccc(Cl)cc1Cl)c1ccc(Cl)cc1Cl
2. Cc1ccc(S(=O)(=O)N/N=C\c2c3ccccc3[n+](C)c3ccccc23)cc1
3. C=C1CC(O)C2C(=C)C(=O)OC2C2C(C)C(=O)CC12 (stereo unspecified)
4. CN(C)CCOc1ccc2c(c1)C(=O)/C(=C\c1ncc([N+](=O)[O-])n1C)C2
5. CCOC(=O)C1=C(C)N(Cc2ccccc2)C2(O)C(OC)CC(=O)C3C(=O)N(c4ccccc4)C(=O)C132 (stereo unspecified)
6. CSc1c(C)n([O-])c2cc(Cl)c(Cl)cc2[n+]1=O
7. CC(=O)[O][Hg][c]1s[c]([Hg][O]C(C)=O)[c]([Hg][O]C(C)=O)[c]1[Hg][O]C(C)=O

[out]
1: 36.4; 2: 98.5; 3: 47; 4: 0.402; 5: 37.1; 6: 34.3; 7: 3.12

# map each compound to its TGI
1. COc1cc2c(=O)n(CC3CCCCC3)c3c4cc[nH]c4ncc3c2cc1OC
2. N=C1C=C(N)C(=O)c2ccccc21
3. C[C@@H]1Cc2c(ccc3[nH]ncc23)[C@@H](c2ccc(NC3CN(CCCF)C3)cn2)N1CC(F)(F)F
4. COC(=O)/C=C\C(C#N)(C#N)N=Cc1ccc(Br)cc1
5. Cc1ccsc1/C=N/Nc1cc(C)c2ccccc2n1
6. Cc1cc2nc(-c3ccc(O)c(O)c3)n(Cc3ccc(O)c(O)c3)c2cc1C
7. COc1ccc(/C=C2/CSC/C(=C/c3ccc(OC)c(OC)c3)C2=O)cc1OC

[out]
[25.9, 0.319, 28.2, 3.92, 9, 39.9, 7.01]

[in] # get_value(readout='TGI', item= COc1ccc(S(=O)(=O)Nc2cc(Sc3cccc4cccnc34)c(O)c3ccccc23)cc1 )
[out] 2.85
